Please provide measured ED50 for the entries that follow.
Test system: Rattus norvegicus
Experiment: Dose producing 50% fall in blood pressure in anesthetized rats
Type: functional

GET /values?item= CO/N=C(\C#N)[C@@H]1CN2CC[C@H]1C2 &system= Rattus norvegicus returns ED50: 0.024 mg/kg

GET /values?item= CO/N=C(\C#N)[C@H]1CN2CC[C@H]1C2 &system= Rattus norvegicus returns ED50: 0.015 mg/kg

GET /values?item= COC(=O)C1=CCCN(C)C1 [ARECOLINE] &system= Rattus norvegicus returns ED50: 0.022 mg/kg

GET /values?item= CO/N=C(\C#N)C12CCN(CC1)C2 &system= Rattus norvegicus returns ED50: 0.01 mg/kg

GET /values?item= CO/N=C(\C#N)[C@@H]1CN2CCC1CC2 &system= Rattus norvegicus returns ED50: > 1 mg/kg

GET /values?item= CO/N=C(\C)C1CN2CCC1CC2 (configuration not stated) &system= Rattus norvegicus returns ED50: > 0.32 mg/kg

GET /values?item= CO/N=C(/C)C12CCCN(CC1)C2 (configuration not stated) &system= Rattus norvegicus returns ED50: 0.068 mg/kg
